Molecular target: Proteasome subunit beta (Trypanosoma cruzi)
Assay: Trypanosoma cruzi proteasome chymotrypsin-like activity (TcProtChymo) assay.
Assay type: functional
Parameters: scale not given: in the data most compounds retested in dose-response had high values
Conditions: 9.37 µM
Category key, based on recorded Percent Effect: category 1 (below 7%), category 2 (7% to below 10%), category 3 (10% or more)

[[record]]
compound = "CN1CCN(Cc2cccnc2)C2(CCN(c3ncc(F)cn3)C2)C1=O (configuration not stated)"
category_label = "category 1"

[[record]]
compound = "Cc1ncsc1C(=O)NCCn1nc2ccccn2c1=O"
category_label = "category 1"

[[record]]
compound = "COCCN(C)Cc1ccc(OC)c(OC(F)F)c1"
category_label = "category 1"

[[record]]
compound = "Cc1cc(C(F)(F)F)nn1C(C)C(=O)Nc1ccncc1 (configuration not stated)"
category_label = "category 2"

[[record]]
compound = "CCn1cc2c(n1)CN(Cc1ccncc1)CC2COCC1CC1 (configuration not stated)"
category_label = "category 3"

[[record]]
compound = "O=C(COCc1ccccc1)N1CCCC(n2cncn2)C1 (configuration not stated)"
category_label = "category 2"


q: Could you tell me which band Cc1cnn(C2CCCN(C(=O)CCCNc3ncccn3)C2)c1 (configuration not stated) belongs to?
a: category 3

q: Using the reported Percent Effect, which band applies to OCC1CCCN1c1cc(NCCc2c[nH]c3ccccc23)ncn1 (configuration not stated) ?
a: category 3

q: Lab note: sort COc1ccc(-n2cnnc2SCCC#N)cn1 into the matching Percent Effect band.
a: category 3

q: Which class does Cc1cc(C)n(C2CCCN(C(=O)CCNS(C)(=O)=O)C2)n1 (configuration not stated) fall in?
a: category 2

q: Dear colleague, I would appreciate it if you could identify the bin for CC(C)CC(=O)N1CC[C@@H]2[C@H](CC1)N(S(C)(=O)=O)CCS2(=O)=O and reply at your convenience.
a: category 3
